Reference source: paper PMC3493512

biological target: SHV-1 β-lactamase (Klebsiella pneumoniae); experiment: X-ray crystal structure at […] Å (soak); Ki by direct competition kinetics
Sequence (P0AD64 22-286): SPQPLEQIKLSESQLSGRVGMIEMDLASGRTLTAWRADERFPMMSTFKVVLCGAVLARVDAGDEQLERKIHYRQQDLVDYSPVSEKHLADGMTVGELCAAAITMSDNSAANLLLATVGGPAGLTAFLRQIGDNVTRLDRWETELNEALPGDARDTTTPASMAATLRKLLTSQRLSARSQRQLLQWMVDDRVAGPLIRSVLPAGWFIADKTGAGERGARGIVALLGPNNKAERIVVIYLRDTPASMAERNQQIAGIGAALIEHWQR
propertyName: Ki (nM)
Enter your answer as a number in nM; do not include the unit.

Given C[C@]1(COC(=O)Cc2ccccc2)[C@H](C(=O)O)N2C(=O)/C(=C/c3ccccn3)[C@H]2S1(=O)=O , state its recorded Ki.
42
